Target: α4β1 integrin (Homo sapiens (Human), UniProt P05556+P13612)
Sequence (P13612 34-1032): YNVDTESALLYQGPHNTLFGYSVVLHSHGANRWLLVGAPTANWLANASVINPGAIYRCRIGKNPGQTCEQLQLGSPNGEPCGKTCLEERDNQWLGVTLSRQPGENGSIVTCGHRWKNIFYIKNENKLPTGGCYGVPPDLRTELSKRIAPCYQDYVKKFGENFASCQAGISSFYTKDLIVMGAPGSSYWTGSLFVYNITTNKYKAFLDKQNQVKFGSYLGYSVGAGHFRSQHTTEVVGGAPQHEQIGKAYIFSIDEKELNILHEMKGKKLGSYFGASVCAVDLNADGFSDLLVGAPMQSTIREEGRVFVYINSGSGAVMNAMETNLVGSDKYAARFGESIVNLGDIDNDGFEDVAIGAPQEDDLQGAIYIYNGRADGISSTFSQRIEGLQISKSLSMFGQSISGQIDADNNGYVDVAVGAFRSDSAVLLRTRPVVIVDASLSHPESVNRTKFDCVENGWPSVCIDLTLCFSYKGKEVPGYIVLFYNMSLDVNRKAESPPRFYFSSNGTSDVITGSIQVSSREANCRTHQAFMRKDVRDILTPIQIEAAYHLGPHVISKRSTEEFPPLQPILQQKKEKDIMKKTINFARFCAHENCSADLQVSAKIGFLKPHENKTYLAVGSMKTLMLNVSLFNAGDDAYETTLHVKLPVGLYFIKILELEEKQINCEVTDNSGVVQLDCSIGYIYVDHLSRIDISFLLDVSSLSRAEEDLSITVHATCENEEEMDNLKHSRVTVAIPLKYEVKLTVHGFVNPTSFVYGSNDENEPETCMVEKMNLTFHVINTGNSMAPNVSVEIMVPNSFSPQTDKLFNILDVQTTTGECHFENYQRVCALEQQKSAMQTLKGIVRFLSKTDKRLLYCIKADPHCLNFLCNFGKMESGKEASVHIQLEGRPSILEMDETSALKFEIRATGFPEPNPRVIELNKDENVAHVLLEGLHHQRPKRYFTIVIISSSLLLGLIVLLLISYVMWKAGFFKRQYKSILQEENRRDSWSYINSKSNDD
Sequence (P05556 21-798): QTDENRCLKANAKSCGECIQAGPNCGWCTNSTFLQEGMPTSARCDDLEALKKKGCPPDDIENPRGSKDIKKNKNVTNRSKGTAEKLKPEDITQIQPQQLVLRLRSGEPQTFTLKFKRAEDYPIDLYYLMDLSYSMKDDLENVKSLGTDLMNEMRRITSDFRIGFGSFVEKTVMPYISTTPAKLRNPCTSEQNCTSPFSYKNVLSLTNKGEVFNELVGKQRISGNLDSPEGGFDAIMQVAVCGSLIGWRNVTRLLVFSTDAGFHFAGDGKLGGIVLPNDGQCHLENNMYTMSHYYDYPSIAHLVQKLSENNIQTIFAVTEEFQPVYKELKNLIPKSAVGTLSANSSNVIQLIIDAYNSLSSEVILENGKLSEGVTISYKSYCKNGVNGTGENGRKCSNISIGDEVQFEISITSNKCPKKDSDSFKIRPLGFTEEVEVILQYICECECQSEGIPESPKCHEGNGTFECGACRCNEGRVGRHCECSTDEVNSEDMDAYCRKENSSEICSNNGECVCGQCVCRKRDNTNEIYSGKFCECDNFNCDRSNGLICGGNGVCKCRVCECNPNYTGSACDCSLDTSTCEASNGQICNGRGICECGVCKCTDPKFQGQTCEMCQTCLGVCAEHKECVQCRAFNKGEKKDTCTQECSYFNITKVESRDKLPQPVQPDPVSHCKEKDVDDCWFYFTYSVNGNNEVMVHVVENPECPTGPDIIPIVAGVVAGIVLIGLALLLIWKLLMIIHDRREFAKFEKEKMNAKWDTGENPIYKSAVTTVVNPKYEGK
Test: Integrin Adhesion Assay: Protocol 5 (VCAM-coated plate, RPMI-8866 cells with stable LOF mutation of the ITGB7 gene)
Format: cell-based
Details: RPMI-8866 cells with stable LOF mutation of the ITGB7 gene; read-out: Mean IC50 α4β1 KO^b
pIC50: −log10 of the molar value.
Listed next: entries and their corresponding pIC50.
Quantity name: pIC50

chemical_structure=Cn1c(=O)c(-c2cccc3c(C[C@H](NC(=O)c4c(F)cc(C(F)(F)F)cc4F)C(=O)O)cccc23)c(C(F)(F)F)c2ccccc21 quantity_name=pIC50 reported_result="< 6.00"
chemical_structure=CN(C)Cc1cccc(F)c1C(=O)N[C@@H](Cc1cccc2c(-c3cccc4ccncc34)cccc12)C(=O)O quantity_name=pIC50 reported_result="< 6.00"
chemical_structure=Cn1c(=O)c(-c2cccc3c(C[C@H](NC(=O)C4(C(F)(F)F)CCN(CC(C)(F)F)CC4)C(=O)O)cccc23)c(C(F)(F)F)c2ccccc21 quantity_name=pIC50 reported_result="6.00 to 7.00"

----------
Target: α4β1 integrin (Homo sapiens (Human), UniProt P05556+P13612)
Assay: Integrin Adhesion Assay: Protocol 2 (VCAM-coated plate, Jurkat cells, CellTiter GLO readout)
Format: cell-based
Conditions: determined by at least one of the assays described (protocol not specified)
Listed next: entries and their corresponding IC50.
Quantity name: IC50

molecule="CNC(=O)[C@@H]1CC[C@H](c2ccccc2)N1C(=O)c1ccc2cc(C(=O)N[C@@H](Cc3cccc4c(-n5c(=O)ccn(C)c5=O)cccc34)C(=O)O)ccc2c1 [Compound 128]" reported_result="> 1 µM"
molecule="O=C(N[C@@H](Cc1cccc2c(-c3cccc4ccncc34)nccc12)C(=O)O)c1c(F)cc(N2CCOC[C@@H]2C(F)(F)F)cc1F [Compound 220]" reported_result="> 1 µM"
molecule="Cn1ccc(=O)n(-c2cccc3c(C[C@H](NC(=O)c4c(F)cc(N(CC(F)(F)F)CC(F)(F)F)cc4F)C(=O)O)cccc23)c1=O [Compound 130]" reported_result="> 1 µM"
molecule="CCN1CCC(C(=O)N[C@@H](Cc2cccc3c(-n4c(=O)ccn(C)c4=O)cccc23)C(=O)O)CC1 [Compound 36]" reported_result="> 1 µM"
molecule="O=C(N[C@@H](Cc1cccc2c(-c3nccc4ccncc34)cccc12)C(=O)O)c1c(F)cc(N2CCOC[C@@H]2C(F)(F)F)cc1F [Compound 23]" reported_result="> 1 µM"
molecule="O=C(N[C@@H](Cc1cccc2c(-c3cccc4ccncc34)cccc12)C(=O)O)c1c(F)cc(NCC(F)(F)F)cc1CN1CCCC1 [Compound 150]" reported_result="> 1 µM"
molecule="O=C(N[C@@H](Cc1cccc2c(-c3cccc4ccncc34)nccc12)C(=O)O)c1c(F)cc(N2CCOC[C@@H]2C(F)(F)F)cc1CN1CCCC1 [Compound 255]" reported_result="0.1 to 1 µM"
molecule="Cn1ccc(=O)n(-c2cccc3c(C[C@H](NC(=O)c4c(F)cc5c(cnn5CC(F)(F)F)c4F)C(=O)O)cccc23)c1=O [Compound 126]" reported_result="0.1 to 1 µM"
molecule="O=C(N[C@@H](Cc1cccc2c(-c3cccc4ccncc34)nccc12)C(=O)O)c1c(F)cc(NCC(F)(F)F)cc1CN1CCCC1 [Compound 256]" reported_result="> 1 µM"
molecule="COc1cc(F)c(C(=O)N[C@@H](Cc2cccc3c(-n4c(=O)ccn(C)c4=O)cccc23)C(=O)O)c(F)c1 [Compound 28]" reported_result="> 1 µM"
molecule="Cn1ccc(C(F)(F)F)c(-c2nccc3c(C[C@H](NC(=O)c4c(F)cc(CN5CCOCC5)cc4F)C(=O)O)cccc23)c1=O [Compound 246]" reported_result="> 1 µM"
molecule="O=C(N[C@@H](Cc1cccc2c(-c3cccc4ccncc34)cccc12)C(=O)O)c1c(F)cc(N2CCOC[C@@H]2C(F)(F)F)cc1CN1CCOCC1 [Compound 149]" reported_result="> 1 µM"

----------
Listed next: entries and their corresponding pIC50.
Target: α4β7 integrin (Homo sapiens (Human), UniProt P13612+P26010)
Sequence (P26010 20-798, one chain of several): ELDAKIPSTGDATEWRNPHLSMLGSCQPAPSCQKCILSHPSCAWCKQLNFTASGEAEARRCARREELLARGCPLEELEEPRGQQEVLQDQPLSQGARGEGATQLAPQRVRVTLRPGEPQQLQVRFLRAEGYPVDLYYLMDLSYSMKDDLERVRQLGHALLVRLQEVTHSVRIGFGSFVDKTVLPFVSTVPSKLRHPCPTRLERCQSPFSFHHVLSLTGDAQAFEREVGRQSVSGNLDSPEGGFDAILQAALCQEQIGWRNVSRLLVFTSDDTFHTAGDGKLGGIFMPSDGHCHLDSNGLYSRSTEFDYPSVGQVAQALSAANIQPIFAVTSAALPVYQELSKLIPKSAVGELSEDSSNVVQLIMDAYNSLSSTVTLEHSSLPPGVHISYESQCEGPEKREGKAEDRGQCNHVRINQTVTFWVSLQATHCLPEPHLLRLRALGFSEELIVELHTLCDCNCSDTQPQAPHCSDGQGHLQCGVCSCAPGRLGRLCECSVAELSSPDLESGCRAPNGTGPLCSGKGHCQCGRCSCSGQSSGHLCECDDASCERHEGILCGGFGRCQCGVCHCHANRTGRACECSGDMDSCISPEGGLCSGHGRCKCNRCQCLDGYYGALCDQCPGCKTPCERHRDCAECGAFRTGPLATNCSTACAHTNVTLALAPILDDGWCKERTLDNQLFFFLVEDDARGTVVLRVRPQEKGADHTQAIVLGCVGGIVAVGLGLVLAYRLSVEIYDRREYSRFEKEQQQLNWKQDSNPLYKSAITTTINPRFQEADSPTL
Experiment: Integrin Adhesion Assay: Protocol 1 (MAdCAM-coated plate, RPMI-8866 cells, CellTiter GLO readout)
Type: cell-based
pIC50: −log10 of the molar value.
Quantity name: pIC50

molecule="CO[C@@H](C)c1cc(F)c(C(=O)N[C@@H](Cc2cccc3c(-c4c(C(F)(F)F)c5ccccc5n(C)c4=O)cccc23)C(=O)O)c(F)c1 [Compound 415]" quantity_name=pIC50 reported_result="6.00 to 7.00"
molecule="Cn1ccc(C(F)(F)F)c(-c2cccc3c(C[C@H](NC(=O)c4c(F)cc(N5CC(F)(F)OC(F)(F)C5)cc4F)C(=O)O)cccc23)c1=O [Compound 441]" quantity_name=pIC50 reported_result="7.00 to 8.00"
molecule="CN(C)Cc1cc(-c2cccc3c(C[C@H](NC(=O)c4c(F)cc(N5CCOC[C@@H]5C(F)(F)F)cc4F)C(=O)O)cccc23)c2cnccc2c1 [Compound 445]" quantity_name=pIC50 reported_result="> 8.00"
molecule="Cn1c(=O)c(-c2cccc3c(C[C@H](NC(=O)c4c(F)ccc(-c5cccnc5)c4F)C(=O)O)cccc23)c(C(F)(F)F)c2ccccc21 [Compound 312]" quantity_name=pIC50 reported_result="7.00 to 8.00"
molecule="CO[C@@H]1C[C@H](c2cc(F)c(C(=O)N[C@@H](Cc3cccc4c(-c5c(C(F)(F)F)c6ccccc6n(C)c5=O)cccc34)C(=O)O)c(F)c2)N(C)C1 [Compound 465]" quantity_name=pIC50 reported_result="6.00 to 7.00"
molecule="O=C(N[C@@H](Cc1cccc2c(-c3cccc4ccncc34)cccc12)C(=O)O)c1c(F)cccc1CN1CCCC1 [Compound 356]" quantity_name=pIC50 reported_result="7.00 to 8.00"
molecule="Cn1c(=O)c(-c2cccc3c(C[C@H](NC(=O)[C@]4(C(F)(F)F)CC[C@H](N5CCOC[C@@H]5C(F)(F)F)CC4)C(=O)O)cccc23)c(C(F)(F)F)c2ccccc21 [Compound 423]" quantity_name=pIC50 reported_result="6.00 to 7.00"
molecule="Cn1c(=O)c(-c2cccc3c(C[C@H](NC(=O)c4c(F)cc(C(F)(F)F)cc4F)C(=O)O)cccc23)c(C(F)(F)F)c2ccccc21 [Compound 325]" quantity_name=pIC50 reported_result="< 6.00"
molecule="Cc1cccnc1-c1ccc(F)c(C(=O)N[C@@H](Cc2cccc3c(-c4c(C(F)(F)F)c5ccccc5n(C)c4=O)cccc23)C(=O)O)c1F [Compound 316]" quantity_name=pIC50 reported_result="6.00 to 7.00"
molecule="Cn1c(C(F)(F)F)cc(C(F)(F)F)c(-c2cccc3c(C[C@H](NC(=O)C4(C(F)(F)F)CCN(CC(F)(F)F)CC4)C(=O)O)cccc23)c1=O [Compound 431]" quantity_name=pIC50 reported_result="> 8.00"
molecule="Cn1c(=O)c(-c2cccc3c(C[C@H](NC(=O)C4(C)CCN([C@H]5CCOC5)CC4)C(=O)O)cccc23)c(C(F)(F)F)c2ccccc21 [Compound 413]" quantity_name=pIC50 reported_result="7.00 to 8.00"
molecule="Cn1c(=O)c(-c2cccc3c(C[C@H](NC(=O)c4c(F)cc(OC(F)(F)F)cc4F)C(=O)O)cccc23)c(C(F)(F)F)c2ccccc21 [Compound 370]" quantity_name=pIC50 reported_result="< 6.00"

----------
Target: α4β7 integrin (Homo sapiens (Human), UniProt P13612+P26010)
Test: Integrin Adhesion Assay: Protocol 4 (MAdCAM-coated plate, RPMI-8866 cells with stable LOF mutation of the ITGB1 gene)
Format: cell-based
Conditions: RPMI-8866 cells with stable LOF mutation of the ITGB1 gene; read-out: Mean IC50 α4β7 KO^a
Quantity name: IC50

compound=Cn1ccc(C(F)(F)F)c(-c2cccc3c(C[C@H](NC(=O)c4c(F)cc(N5CCOC[C@H]5c5ccccc5)cc4F)C(=O)O)cccc23)c1=O reported_result="10 to 100 nM"
compound=O=C(O)[C@H](Cc1cccc2c(-c3nccc4c(CN5CCC(F)(F)CC5)cccc34)cccc12)NC(=O)C1(C(F)(F)F)CCN(CC(F)(F)F)CC1 reported_result="10 to 100 nM"
compound=Cc1cccc(F)c1C(=O)N[C@@H](Cc1cccc2c(-c3c(C(F)(F)F)ccn(C)c3=O)cccc12)C(=O)O reported_result="10 to 100 nM"
compound="COc1ccc(CN2CCC(F)(F)CC2)c(OC)c1-c1cccc2c(C[C@H](NC(=O)C3(C(F)(F)F)CCN(C4COCC4(F)F)CC3)C(=O)O)cccc12 (single isomer, unassigned) [Compound 640]" reported_result="10 to 100 nM"
compound=CN(C)Cc1ccc2c(-c3cccc4c(C[C@H](NC(=O)C5(C(F)(F)F)CCN(CC(F)(F)F)CC5)C(=O)O)cccc34)nccc2c1 reported_result="10 to 100 nM"
compound=COc1ccc(CN2CCCCC2)c(OC)c1-c1cccc2c(C[C@H](NC(=O)c3c(F)cccc3-c3ccccc3)C(=O)O)cccc12 reported_result="< 10 nM"
